Where these numbers come from: paper PMC6193938

- Test system: panel of human cell lines
- experimental.details: In vitro proliferation assay, Cell Titer Glo, two doubling times, 298 cell lines
- Assay type: cell-based
- assay.setup: Homo sapiens, Calu-3, Calu-3, lung; read-out: ABS_IC50_VALUE
measure: IC50 (nM)
Form entry: value (nM) — number only.

Data request: Request the reported IC50 associated with O=c1[nH]ccc2cc(F)c(NS(=O)(=O)c3ccc(N4CC[C@@H](O)C4)s3)cc12
Data returned: 2270

* * *

- Test system: panel of human cell lines
- experimental.details: In vitro proliferation assay, Cell Titer Glo, two doubling times, 298 cell lines
- Assay type: cell-based
- assay.setup: Homo sapiens, NOMO-1, NOMO-1, haematopoietic and lymphoid tissue; read-out: ABS_IC50_VALUE
measure: IC50 (nM)
Form entry: value (nM) — number only.

Data request: Request the reported IC50 associated with O=c1[nH]ccc2cc(F)c(NS(=O)(=O)c3ccc(N4CC[C@@H](O)C4)s3)cc12 [LSN3213128]
Data returned: 2030

* * *

- Tested on: panel of human cell lines
- experimental.details: In vitro proliferation assay, Cell Titer Glo, two doubling times, 298 cell lines
- Type: cell-based
- assay.setup: Homo sapiens, SNB-19, SNB19 (central nervous system, Glioblastoma); read-out: ABS_IC50_VALUE
measure: IC50 (µM)
Form entry: value (µM) — number only.

Data request: Request the reported IC50 associated with O=c1[nH]ccc2cc(F)c(NS(=O)(=O)c3ccc(N4CC[C@@H](O)C4)s3)cc12
Data returned: 0.79

* * *

- Tested on: panel of human cell lines
- experimental.details: In vitro proliferation assay, Cell Titer Glo, two doubling times, 298 cell lines
- Type: cell-based
- assay.setup: Homo sapiens, NCI-H1395, NCI-H1395, lung; read-out: ABS_IC50_VALUE
measure: IC50 (µM)
Form entry: value (µM) — number only.

Data request: Request the reported IC50 associated with O=c1[nH]ccc2cc(F)c(NS(=O)(=O)c3ccc(N4CC[C@@H](O)C4)s3)cc12
Data returned: 12.6

* * *

- System: panel of human cell lines
- experimental.details: In vitro proliferation assay, Cell Titer Glo, two doubling times, 298 cell lines
- Type: cell-based
- assay.setup: Homo sapiens, DMS-53, DMS-53, lung; read-out: ABS_IC50_VALUE
measure: IC50

Data request: Request the reported IC50 associated with O=c1[nH]ccc2cc(F)c(NS(=O)(=O)c3ccc(N4CC[C@@H](O)C4)s3)cc12
Data returned: > 20 µM

* * *

- Test system: panel of human cell lines
- experimental.details: In vitro proliferation assay, Cell Titer Glo, two doubling times, 298 cell lines
- Format: cell-based
- assay.setup: Homo sapiens, MG-63, MG-63, bone; read-out: ABS_IC50_VALUE
pIC50: −log10 of the molar value.
measure: pIC50

Data request: Request the reported pIC50 associated with O=c1[nH]ccc2cc(F)c(NS(=O)(=O)c3ccc(N4CC[C@@H](O)C4)s3)cc12
Data returned: < 4.70

* * *

- Test system: panel of human cell lines
- experimental.details: In vitro proliferation assay, Cell Titer Glo, two doubling times, 298 cell lines
- Assay type: cell-based
- assay.setup: Homo sapiens, MDA-MB-157, MDA-MB-157, breast; read-out: ABS_IC50_VALUE
measure: IC50

Data request: Request the reported IC50 associated with O=c1[nH]ccc2cc(F)c(NS(=O)(=O)c3ccc(N4CC[C@@H](O)C4)s3)cc12
Data returned: > 20 µM
